# Type: physicochemical
# cond: ^177Lu-A (2.7-3.7 mCi) prepared in presence of 1 mg/mL stabilizer, t = 0 h
Where a name gives a salt, the structure may show the parent alone.
List of RCP % t = 0 h values.
Number only, in %; omit the unit.

{"columns": ["molecule", "RCP % t = 0 h [%]"],
 "data": [
  ["C[Se]CC[C@H](N)C(=O)O [L-Selenomethionine]", 100]
]}

Field request: RCP % t = 0 h | item: O=C1O[C@H]([C@@H](O)CO)C([O-])=C1O.[Na+] [Ascorbic acid, Sodium L-ascorbate (Ascorbic acid)]
98.7

Field request: RCP % t = 0 h | item: O=C([O-])c1cc(O)ccc1O.[Na+] [Gentisic acid]
100

Field request: RCP % t = 0 h | item: N[C@@H](CS)C(=O)O [L-cysteine, L-cysteine hydrochloride monohydrate]
100

Field request: RCP % t = 0 h | item: CSCC[C@@H](N)C(=O)O [D-Methionine]
100

----------
# Assay type: physicochemical
# cond: ^177Lu-B (44-53 mCi) formulated with 5 mg stabilizing compound, 24 h
Counter-ions that a name gives are not always drawn.
List of (% RCP) 24-h values.
Number only, in %; omit the unit.

{"columns": ["compound", "resultUnits", "(% RCP) 24-h"],
 "data": [
  ["C[Se]CC[C@H](N)C(=O)O [L-Selenomethionine]", "%", 90.6],
  ["N.S=C(S)N1CCCC1 [PDTC]", "%", 94.0],
  ["N[C@@H](CS)C(=O)O [L-cysteine, L-cysteine hydrochloride monohydrate]", "%", 50.9]
]}

Let us examine a further case.
Field request: (% RCP) 24-h | item: CCOC(=O)[C@@H](N)CS [L-cysteine ethyl ester hydrochloride]
85.1

----------
List of RCP % t = 0 h values.
# Type: physicochemical
# cond: ^177Lu-A (3.6 mCi) prepared in presence of 2.5 mg/mL stabilizer, t = 0 h
# Procedure: To lead-shielded 4-mL vials was added 200 μL of the individual NaOAc-stabilizer solutions, 3.58 mCi ^177LuCl3 (avg) and 5.08 μg COMPOUND A (dissolved in water). The ratio of COMPOUND A to Lutetium was 3:1 for all samples. The reaction mixtures were heated to 100° C. for 5 minutes, then cooled, treated with Na2EDTA.2H2O, subdivided and stored as described in Example 9. The radiochemical purity (RCP) percentage data obtained are listed Table 12.
Where a name gives a salt, the structure may show the parent alone.
Number only, in %; omit the unit.

{"columns": ["compound", "RCP % t = 0 h [%]"],
 "data": [
  ["CSCC[C@@H](N)C(=O)O", 100],
  ["C[Se]CC[C@H](N)C(=O)O", 95.7],
  ["O=C([O-])c1cc(O)ccc1O.[Na+]", 100]
]}

Let us examine a further case.
Field request: RCP % t = 0 h | item: N[C@@H](CS)C(=O)O [L-cysteine, L-cysteine hydrochloride monohydrate]
100

----------
# Format: physicochemical
# cond: ^177Lu-A (3.34 mCi avg per aliquot), stabilizer 5 mg/mL added after complex preparation; analysed 1-3.5 hrs after preparation
Structures can show the parent of a compound that is named as a salt.
Label Yes when RCP % t = 0 h is strictly below 70%; otherwise label No.

# example entries with known answers
{"columns": ["compound", "classLabel"],
 "data": [
  ["COC(=O)[C@@H](N)CS [L-cysteine methyl ester hydrochloride]", "No"],
  ["CCOC(=O)[C@@H](N)CSSC[C@H](N)C(=O)OCC.Cl.Cl [L-cysteine diethyl ester dihydrochloride]", "Yes"],
  ["CCOC(=O)[C@@H](N)CS [L-cysteine ethyl ester hydrochloride]", "No"]
]}

I'd appreciate it if you could check whether N[C@@H](CS(=O)O)C(=O)O.O [L-cysteinesulfinic acid monohydrate] has RCP % t = 0 h smaller than 70%.
No

I'd appreciate it if you could check whether Cl.Cl.NCCSSCCN [Cystamine dihydrochloride] has RCP % t = 0 h smaller than 70%.
Yes

----------
# procedureDetails: Radiostability (RCP, Met═O by HPLC) of preformed ^177Lu-A with individual amino acids added (Example 1)
# Format: physicochemical
# cond: ^177Lu-A ~20 mCi/mL, amino acid 6.6 mg/mL, room temperature, 48 h
resultType: 48-h RCP (%)
Number only, in %; omit the unit.

// below: answered molecules
{"columns": ["molecule", "48-h RCP (%)"],
 "data": [
  ["NCC(=O)O [Glycine]", 0],
  ["CSCC[C@H](N)C(=O)O [L-Methionine]", 94],
  ["N[C@@H](Cc1c[nH]c2ccccc12)C(=O)O [Tryptophan, L-Tryptophan]", 18.2],
  ["C[Se]CC[C@H](N)C(=O)O [L-Selenomethionine]", 99.9]
]}

Let us examine a further case.
Field request: 48-h RCP (%) | item: N[C@@H](Cc1c[nH]cn1)C(=O)O [Histidine, L-Histidine]
0

----------
List of 0-1 h RCP (%) values.
# procedureDetails: Radiostability (RCP, Met═O by HPLC) of preformed ^177Lu-A with individual amino acids added (Example 1)
# Assay type: physicochemical
# cond: ^177Lu-A ~20 mCi/mL (3.5 mCi total), amino acid 6.6 mg/mL, room temperature, 0-1 h
Number only, in %; omit the unit.

// below: answered compounds
{"columns": ["compound", "0-1 h RCP (%)"],
 "data": [
  ["CSCC[C@H](N)C(=O)O [L-Methionine]", 100],
  ["N[C@@H](Cc1c[nH]c2ccccc12)C(=O)O [Tryptophan, L-Tryptophan]", 95.5],
  ["NCC(=O)O [Glycine]", 96.4],
  ["C[Se]CC[C@H](N)C(=O)O [L-Selenomethionine]", 100]
]}

Let us examine a further case.
Field request: 0-1 h RCP (%) | item: N[C@@H](Cc1c[nH]cn1)C(=O)O [Histidine, L-Histidine]
92.5

----------
# Assay type: physicochemical
# cond: ^177Lu-B formulated with 5 mg stabilizing compound, 0 to 24 h
Where a name gives a salt, the structure may show the parent alone.
resultType: RCP Drop over 24 hr (%)
Number only, in %; omit the unit.

// below: answered compounds
{"columns": ["compound", "resultUnits", "RCP Drop over 24 hr"],
 "data": [
  ["C[Se]CC[C@H](N)C(=O)O [L-Selenomethionine]", "%", 4.4],
  ["N.S=C(S)N1CCCC1 [PDTC]", "%", 1],
  ["N[C@@H](CS)C(=O)O [L-cysteine, L-cysteine hydrochloride monohydrate]", "%", 48.2]
]}

Let us examine a further case.
Field request: RCP Drop over 24 hr | item: CCOC(=O)[C@@H](N)CS [L-cysteine ethyl ester hydrochloride]
13.3

----------
# Format: physicochemical
# cond: ^177Lu-A (4.37 mCi avg) prepared in presence of 5 mg/mL stabilizer, HPLC Method 2, t = 24 h
Where a name gives a salt, the structure may show the parent alone.
resultType: Replicate 2 RCP % t = 24 h
Dear colleague, please send the value followed by its unit.

{"columns": ["compound", "resultType", "valueMeasured"],
 "data": [
  ["CSCC[C@@H](N)C(=O)O", "Replicate 2 RCP % t = 24 h", "80.7%"],
  ["O=C([O-])c1cc(O)ccc1O.[Na+]", "Replicate 2 RCP % t = 24 h", "75.2%"],
  ["C[Se]CC[C@H](N)C(=O)O", "Replicate 2 RCP % t = 24 h", "57.1%"],
  ["N[C@@H](CS)C(=O)O [L-cysteine, L-cysteine hydrochloride monohydrate]", "Replicate 2 RCP % t = 24 h", "67.4%"]
]}

Field request: Replicate 2 RCP % t = 24 h | item: O=C1O[C@H]([C@@H](O)CO)C([O-])=C1O.[Na+] [Ascorbic acid, Sodium L-ascorbate (Ascorbic acid)]
24.5%

----------
# Format: physicochemical
# cond: ^177Lu-A (2.7-3.7 mCi) prepared in presence of 1 mg/mL stabilizer, 24 h frozen (−10° C.)
Where a name gives a salt, the structure may show the parent alone.
resultType: RCP % t = 24 h (frozen)
Dear colleague, please send the value followed by its unit.

// below: answered compounds
{"columns": ["compound", "valueMeasured"],
 "data": [
  ["O=C([O-])c1cc(O)ccc1O.[Na+] [Gentisic acid]", "84.3%"],
  ["N[C@@H](CS)C(=O)O [L-cysteine, L-cysteine hydrochloride monohydrate]", "82.1%"],
  ["C[Se]CC[C@H](N)C(=O)O [L-Selenomethionine]", "99.2%"]
]}

Field request: RCP % t = 24 h (frozen) | item: CSCC[C@@H](N)C(=O)O [D-Methionine]
100%
